EXPERIMENTAL_SYSTEM: Sodium-dependent dopamine transporter (Homo sapiens, UniProt Q01959)
Sequence (Q01959 whole entry): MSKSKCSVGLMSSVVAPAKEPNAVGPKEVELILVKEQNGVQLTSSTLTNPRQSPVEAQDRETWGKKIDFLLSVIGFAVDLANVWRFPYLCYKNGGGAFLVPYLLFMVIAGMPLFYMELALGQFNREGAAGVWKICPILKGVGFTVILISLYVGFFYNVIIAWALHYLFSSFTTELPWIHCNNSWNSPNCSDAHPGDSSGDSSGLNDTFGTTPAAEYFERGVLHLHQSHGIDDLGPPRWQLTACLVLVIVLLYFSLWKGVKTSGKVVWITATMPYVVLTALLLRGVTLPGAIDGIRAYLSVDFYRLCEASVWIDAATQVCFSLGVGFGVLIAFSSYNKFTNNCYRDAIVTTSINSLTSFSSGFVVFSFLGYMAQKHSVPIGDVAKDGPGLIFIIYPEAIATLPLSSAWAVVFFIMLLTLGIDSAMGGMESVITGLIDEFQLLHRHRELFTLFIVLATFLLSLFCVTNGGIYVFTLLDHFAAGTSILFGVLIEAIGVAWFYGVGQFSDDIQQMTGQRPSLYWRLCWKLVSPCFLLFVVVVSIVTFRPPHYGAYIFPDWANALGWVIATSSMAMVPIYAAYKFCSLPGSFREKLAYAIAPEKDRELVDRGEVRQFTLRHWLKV
MEASURE: IC50 (nM)
Could you give me the number in nM? Just the number is fine.

Item: `CCC[C@@H]1CN(C)CC[C@@H]1c1ccc(Cl)cc1` | IC50: 3
